I'd appreciate it if you could supply 25 μM % Lysed cells (1 h LDH) values for the items below.
# Tested on: SJSA-1 cells
# test description: Cell lysis by peptidomimetic macrocycles (LDH release)
# Format: cell-based
# conditions: 25 μM, SJSA-1, 1 h
Bridge positions count the residues as written; N and C are the ends. Square brackets hold non-standard residues; d marks the D form. Peptide text beside a SMILES is read from it. R8 = C=CCCCCCC[C@@](C)(N)C(=O)O; Cha = N[C@@H](CC1CCCCC1)C(=O)O; S5 = C=CCCC[C@](C)(N)C(=O)O
Respond with the bare value in %.

input: # returns recorded 25 μM % Lysed cells (1 h LDH) (system: SJSA-1 cells) for CC(=O)N[C@@H](Cc1ccccc1)C(=O)N[C@]1(C)CCCCCCC=CCCC[C@@](C)(C(=O)N[C@@H](Cc2c[nH]cn2)C(=O)N[C@@H](CCCNC(=N)N)C(=O)N[C@@H](Cc2ccccc2)C(=O)N[C@@H](CC2CCCCC2)C(N)=O)NC(=O)[C@H](CC(C)C)NC(=O)[C@H](CCC(N)=O)NC(=O)[C@H](Cc2c[nH]cn2)NC(=O)[C@H](Cc2c[nH]c3ccccc23)NC(=O)[C@H](Cc2c[nH]cn2)NC(=O)[C@H](Cc2c[nH]cn2)NC1=O [compound 55] (Ac-F[R8]HHWHQL[S5]HRF[Cha]-NH2; staple 2-9)
output: 9

input: # returns recorded 25 μM % Lysed cells (1 h LDH) (system: SJSA-1 cells) for CC[C@H](C)[C@H](NC(=O)[C@H](C)NC(=O)[C@H](C)NC(=O)[C@]1(C)CCCC=CCCCCCC[C@@](C)(NC(=O)[C@H](Cc2ccccc2)NC(=O)[C@@H](NC(=O)[C@H](CCC(=O)O)NC(C)=O)[C@@H](C)O)C(=O)N[C@@H](CCC(=O)O)C(=O)N[C@@H](Cc2c[nH]cn2)C(=O)N[C@@H](Cc2c[nH]c3ccccc23)C(=O)N[C@@H](C)C(=O)N[C@@H](CCC(N)=O)C(=O)N[C@@H](CC(C)C)C(=O)N1)C(=O)N[C@H](C)C(N)=O (single isomer, unassigned) [compound 175]
output: 1

###

# Tested on: SJSA-1 cells
# test description: Cell lysis by peptidomimetic macrocycles (LDH release)
# Format: cell-based
# conditions: 50 μM, SJSA-1, 1 h
Bridge positions count the residues as written; N and C are the ends. Square brackets hold non-standard residues; d marks the D form. Peptide text beside a SMILES is read from it. R8 = C=CCCCCCC[C@@](C)(N)C(=O)O; S5 = C=CCCC[C@](C)(N)C(=O)O
assay metric: 50 μM % Lysed cells (1 h LDH) (%)
Respond with the bare value in %.

input: Look at this molecule and give its reported 50 μM % Lysed cells (1 h LDH). CC(=O)N[C@@H](CC(C)C)C(=O)N[C@H](C(=O)N[C@@H](Cc1ccccc1)C(=O)N[C@]1(C)CCCCCCC=CCCC[C@@](C)(C(=O)N[C@@H](CO)C(=O)N[C@@H](C)C(=O)N[C@@H](C)C(N)=O)NC(=O)[C@H](CC(C)C)NC(=O)[C@H](CCC(N)=O)NC(=O)[C@H](C)NC(=O)[C@H](Cc2c[nH]c3ccccc23)NC(=O)[C@H](Cc2ccc(O)cc2)NC(=O)[C@H](C)NC1=O)[C@@H](C)O [compound 11] (Ac-LTF[R8]AYWAQL[S5]SAA-NH2; staple 4-11)
output: 3

input: Look at this molecule and give its reported 50 μM % Lysed cells (1 h LDH). CC(=O)N[C@@H](C)C(=O)N[C@@H](C)C(=O)N[C@@H](CC(C)C)C(=O)N[C@H](C(=O)N[C@@H](Cc1ccccc1)C(=O)N[C@]1(C)CCCCCCC=CCCC[C@@](C)(C(=O)N[C@@H](CO)C(=O)N[C@@H](C)C(=O)N[C@@H](C)C(=O)N[C@@H](C)C(=O)N[C@H](C)C(N)=O)NC(=O)[C@H](CC2CCC2)NC(=O)[C@H](CCC(N)=O)NC(=O)[C@H](C)NC(=O)[C@H](Cc2c[nH]c3ccccc23)NC(=O)[C@H](Cc2ccc(O)cc2)NC(=O)[C@H](CCC(=O)O)NC1=O)[C@@H](C)O (single isomer, unassigned) [compound 359]
output: 0
